# Tested on: EKVX
# assayMethodText: NCI tumour cell line growth inhibition, 48 h
Activity calls are given as the source filed them. No stated cut-off is given here; in the data, active = GI50 up to about 1.1 µM and inactive = higher.
measurementKind: GI50

INSERT INTO assay_data (compound, measurementkind, reportedmeasurement) VALUES
  ('O=C(c1ccc2c3c(ccc(C(=O)C(F)(F)F)c13)CC2)C(F)(F)F', 'GI50', '81.7 µM (inactive)'),
  ('NC(=S)N/N=C1\CCCCc2ccccc21', 'GI50', '> 10 µM (inactive)'),
  ('C#CCOCn1cnc2ncnc(N)c21', 'GI50', '> 100 µM (inactive)'),
  ('CCCCCCCCCCc1c2nc(c(CCCCCCCCCC)c3ccc([nH]3)c(CCCCCCCCCC)c3nc(c(CCCCCCCCCC)c4ccc1[nH]4)C=C3)C=C2', 'GI50', '> 100 µM (inactive)'),
  ('COC(=O)C(C(=O)C(=O)Nc1c(Cl)cc([N+](=O)[O-])cc1Cl)c1csc(-n2nc(C3=CCCCC3)cc2-c2ccccc2)n1 (stereo unspecified)', 'GI50', '8.47 µM (inactive)'),
  ('O=C1CCC(c2nc3cc(Cl)ccc3o2)C(=O)N1 (stereo unspecified)', 'GI50', '> 100 µM (inactive)'),
  ('CC/C(=C\c1ccc(OC)cc1)c1ccc(OC)cc1', 'GI50', '> 100 µM (inactive)'),
  ('CN(C(=O)C1=CCC2(CC1)OCCO2)c1ccccc1OS(=O)(=O)C(F)(F)F', 'GI50', '> 100 µM (inactive)'),
  ('CN(C(=O)/C=C/c1ccccc1)C1C2CN3CCC(O2)C13 (stereo unspecified)', 'GI50', '> 100 µM (inactive)'),
  ('O=C(O)c1cc(-c2ccccc2O)nc2ccccc12', 'GI50', '> 100 µM (inactive)'),
  ('CC1(C)C2C=CC1C(=O)CC2 (stereo unspecified)', 'GI50', '> 100 µM (inactive)');

###

# Test system: SF-268
# assayMethodText: NCI tumour cell line growth inhibition, 48 h
Active and inactive are the calls of the source. Cut-off read from the data, not from the text of the source: active = GI50 up to about 1.1 µM and inactive = higher.
Known GI50 of a selection of compounds
measurementKind: GI50

INSERT INTO measurements (compound, measurementkind, reportedmeasurement) VALUES
  ('Cc1ccc(/N=N/c2c(O)ccc3cc(S(=O)(=O)O)ccc23)c(C)c1', 'GI50', '> 100 µM (inactive)'),
  ('C=CCN1C(=O)C[C@H](Cc2ccccc2)NC(=O)C[C@H](Cc2ccccc2)N(CC=C)C(=O)C[C@H](Cc2ccccc2)NC(=O)C[C@@H]1Cc1ccccc1', 'GI50', '6.12 µM (inactive)'),
  ('CN1CCc2c(sc3ncn(Nc4ccc(F)cc4)c(=N)c23)C1', 'GI50', '> 100 µM (inactive)'),
  ('O=Cc1c(-c2ccccc2)nc2ccccc2c1O', 'GI50', '59.3 µM (inactive)'),
  ('COc1cc(C2c3cc4c(cc3OC(N3CCOCC3)C2C)OCO4)cc(OC)c1OC(C)=O (centres undefined)', 'GI50', '39.3 µM (inactive)'),
  ('C[C@]12CCC(=O)C=C1CC[C@@H]1[C@@H]2[C@@H](O)C[C@@]2(C)[C@H]1CC[C@]2(O)C(=O)COC(=O)COCC(=O)O', 'GI50', '> 100 µM (inactive)'),
  ('COc1ccc(C(=C(I)c2ccccc2)c2ccc(OC)cc2)cc1', 'GI50', '> 100 µM (inactive)'),
  ('COC(=O)c1ccc2[nH]c3c(c2c1)CC(=O)Nc1ccccc1-3', 'GI50', '9.18 µM (inactive)'),
  ('CCN(CC)CCCNC(=O)c1ccccc1Nc1c(Cl)cccc1Cl', 'GI50', '15.5 µM (inactive)');

###

# System: HCC 2998
# assayMethodText: NCI tumour cell line growth inhibition, 48 h
Calls of active or inactive are those of the source. Cut-off read from the data, not from the text of the source: active = GI50 up to about 1.1 µM and inactive = higher.
Known GI50 of a selection of compounds
measurementKind: GI50

INSERT INTO results (compound, measurementkind, reportedmeasurement) VALUES
  ('O=c1oc2c([N+](=O)[O-])cc([N+](=O)[O-])cc2c2ccccc12', 'GI50', '> 100 µM (inactive)'),
  ('CC1=NN(c2cccc(Cl)c2)C2(C1=C/C=C/c1ccccc1)C(Cl)C(=O)N2c1nc2ccccc2s1 (configuration not stated)', 'GI50', '25.1 µM (inactive)'),
  ('O=c1cnn(C/C=C/CP(=O)(O)O)c(=O)[nH]1', 'GI50', '> 100 µM (inactive)'),
  ('CC(C)NC(NC(C)C)=C(S(=O)(=O)C(F)(F)C(F)(F)C(F)(F)C(F)(F)F)S(=O)(=O)C(F)(F)C(F)(F)C(F)(F)C(F)(F)F', 'GI50', '> 100 µM (inactive)'),
  ('CCOC(=O)CNc1nnnn1C1OC(CO)C(O)C1O (configuration not stated)', 'GI50', '> 100 µM (inactive)'),
  ('FC(F)(F)C1(Cl)C(c2ccccc2)=C1c1ccccc1', 'GI50', '17.7 µM (inactive)'),
  ('Oc1ccc(O)c(-n2cccn2)c1', 'GI50', '> 100 µM (inactive)'),
  ('CC(O)C1CC1(CO)CNc1cc(Cl)nc(N)n1 (configuration not stated)', 'GI50', '> 100 µM (inactive)'),
  ('CC(=O)O[C@H]1CCN2C(=O)C=CC(OCc3ccccc3)C12 (some centres not stated)', 'GI50', '> 100 µM (inactive)'),
  ('CC(C)c1cccc(C(=O)NCCN(C)C)c1[N+](=O)[O-]', 'GI50', '> 100 µM (inactive)'),
  ('COC(=O)/C(=C1\OC(=O)C(c2ccc(Cl)cc2)=C1O)c1ccc(Cl)cc1', 'GI50', '28.7 µM (inactive)'),
  ('CCC(=O)OC1=C(c2ccccc2)Sc2ccc(Cl)cc2-n2cccc21', 'GI50', '> 10 µM (inactive)'),
  ('CCOC(=O)CCN1C(=O)c2ccc(NC(=O)C(=O)O)cc2S1(=O)=O', 'GI50', '> 100 µM (inactive)'),
  ('C[n+]1[n-]o/c(=N\N=O)c1-c1cc(-c2/c(=N/N=O)o[n-][n+]2C)cc(-c2/c(=N\N=O)o[n-][n+]2C)c1', 'GI50', '> 100 µM (inactive)'),
  ('CCN1CCN(c2nc3ccccc3c3c2CCOc2ccccc2-3)CC1', 'GI50', '18.6 µM (inactive)'),
  ('CC(C)(C)OC(=O)N1N=NC2C1C1CC(OCc3ccccc3)(OCc3ccccc3)C2O1 (configuration not stated)', 'GI50', '> 100 µM (inactive)'),
  ('CC(C)=CCC/C(C)=C/CC/C(C)=C/CCN(C)CCO', 'GI50', '2.03 µM (inactive)');

###

# Test system: UACC-62
# assayMethodText: NCI tumour cell line growth inhibition, 48 h
Calls of active or inactive are those of the source. Rule as the data show it: active = GI50 up to about 1.1 µM and inactive = higher.
measurementKind: GI50

INSERT INTO measurements (compound, reportedmeasurement) VALUES
  ('COC1=CC(=O)c2c(c(COC(C)=O)cn2C)C1=O', '0.13 µM (active)'),
  ('O=S(=O)(O)c1cccc2ccc(O)c(/N=N\c3ccc(S(=O)(=O)c4ccc(/N=N/c5c(O)ccc6cccc(S(=O)(=O)O)c56)cc4)cc3)c12', '> 100 µM (inactive)'),
  ('CC(C)(C)OC(=O)n1cc(C2CN(O)C(=O)C23CCC(=O)N3Cc2ccccc2)c2ccccc21 (stereo not given)', '68.1 µM (inactive)'),
  ('CN1CCc2c(sc3ncn(Nc4ccc(F)cc4)c(=N)c23)C1', '> 100 µM (inactive)'),
  ('O=C(O)c1nc2ccc(C(F)(F)F)cc2nc1Nc1ccc(F)cc1', '11.7 µM (inactive)');

###

# System: OVCAR-8
# assayMethodText: NCI tumour cell line growth inhibition, 48 h
Activity calls are given as the source filed them. No stated cut-off is given here; in the data, active = GI50 up to about 1.1 µM and inactive = higher.
measurementKind: GI50

INSERT INTO measurements (compound, measurementkind, reportedmeasurement) VALUES
  ('CC(=O)OC1(C#N)CC2OC1C1N=NN(C(=O)OC(C)(C)C)C21 (stereo not given)', 'GI50', '30.3 µM (inactive)'),
  ('Cn1c(=O)c2c(nc(N)n2C2OC(CO)C(O)C2O)n(C)c1=O (stereo not given)', 'GI50', '> 100 µM (inactive)'),
  ('O=c1[nH]nc(Cc2ccccc2)n1/N=C\CC/C=N\n1c(Cc2ccccc2)n[nH]c1=O', 'GI50', '23.1 µM (inactive)'),
  ('CN1CCc2c(sc3ncn(Nc4ccc(F)cc4)c(=N)c23)C1', 'GI50', '> 100 µM (inactive)'),
  ('COc1ccc(N2C(=O)C3ON(Cc4ccc(CC(N)=O)cc4)C(c4c5ccccc5c(C)c5ccccc45)C3C2=O)cc1 (stereo not given)', 'GI50', '27 µM (inactive)');

###

# System: UO-31
# assayMethodText: NCI tumour cell line growth inhibition, 48 h
The source made the active and inactive calls. Cut-off read from the data, not from the text of the source: active = GI50 up to about 1.1 µM and inactive = higher.
Possible outcomes: active, inactive

INSERT INTO assay_data (molecule, category) VALUES
  ('COC(=O)/C(=C1\OC(=O)C(c2ccc(Cl)cc2)=C1O)c1ccc(Cl)cc1', 'inactive'),
  ('OCCO[P+]1(OCCO)n2c3ccc2C(c2ccccc2)=C2C=CC(=N2)C(c2ccccc2)=c2ccc(n21)=C(c1ccccc1)C1=NC(=C3c2ccccc2)C=C1', 'inactive'),
  ('NC1(CCNC(=O)c2ccccc2)CCN(C(=O)c2ccccc2)CC1', 'inactive'),
  ('CC(C)(C)c1cc(C=C(C#N)C#N)cc(C(C)(C)C)c1O [TYRPHOSTIN A9]', 'active'),
  ('O=c1[nH]nc(Cc2ccccc2)n1/N=C\CC/C=N\n1c(Cc2ccccc2)n[nH]c1=O', 'inactive'),
  ('CC(C)=CCC/C(C)=C/CC/C(C)=C/CC/C(C)=C/C=C/C=C(\C)CC/C=C(\C)CC/C=C(\C)CCC=C(C)C', 'inactive'),
  ('CC(C)=CC[C@]12CCN(C)[C@H]1N(S(=O)(=O)c1ccccc1)c1ccccc12', 'inactive'),
  ('O=C(CCc1nnc2s/c(=C\c3ccc([N+](=O)[O-])cc3)c(=O)n12)Nc1ccc(Cl)c(Cl)c1', 'inactive');
